target-under-test: Human plasma kallikrein (Homo sapiens (Human))
Sequence (P03952 391-638): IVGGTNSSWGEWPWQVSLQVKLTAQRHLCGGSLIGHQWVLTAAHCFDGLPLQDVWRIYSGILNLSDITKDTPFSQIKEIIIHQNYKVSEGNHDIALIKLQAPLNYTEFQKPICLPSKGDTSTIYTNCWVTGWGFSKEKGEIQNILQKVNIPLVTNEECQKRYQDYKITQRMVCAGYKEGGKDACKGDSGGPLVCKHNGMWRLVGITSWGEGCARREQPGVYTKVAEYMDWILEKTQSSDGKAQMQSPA
Sequence (P03952 20-390 partner): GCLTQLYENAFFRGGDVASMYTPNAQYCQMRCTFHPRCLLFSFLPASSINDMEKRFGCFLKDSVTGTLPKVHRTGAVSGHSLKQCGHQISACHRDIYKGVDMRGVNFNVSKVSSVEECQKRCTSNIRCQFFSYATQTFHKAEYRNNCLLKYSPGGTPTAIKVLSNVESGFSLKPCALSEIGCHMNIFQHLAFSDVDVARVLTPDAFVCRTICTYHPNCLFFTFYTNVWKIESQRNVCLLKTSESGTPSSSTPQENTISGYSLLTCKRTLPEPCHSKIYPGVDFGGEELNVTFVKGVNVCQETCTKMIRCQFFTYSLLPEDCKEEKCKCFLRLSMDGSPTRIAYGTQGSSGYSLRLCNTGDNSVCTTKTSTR
method-notes: Kallikrein Assay
experimental-parameters: purified Human plasma kallikrein 0.5 nM, Acetyl-K-P-R-AFC, pH 7.4; Ki from IC50 by Cheng Prusoff
Would you kindly list pKi for each of these compounds?
Answers are plain numbers, as −log10 of the molar value.

[
  {
    "compound": "COC(=O)Nc1ccc(C(=O)N[C@@H](Cc2ccc(F)cc2)C(=O)N2CC[C@@]3(C2)OC(=O)Nc2ccc(Cl)cc23)cc1 [Example 22]",
    "target-under-test": "Human plasma kallikrein (Homo sapiens (Human))",
    "pKi": 7.66
  },
  {
    "compound": "COC(=O)Nc1ccc(C(=O)N[C@@H](CC2CC2)C(=O)N2CCC[C@@]3(C2)OC(=O)Nc2ccc(C)cc23)cc1 [Example 66]",
    "target-under-test": "Human plasma kallikrein (Homo sapiens (Human))",
    "pKi": 8.42
  }
]

Prompt: Reported pKi for COCCOC(=O)Nc1ccc(C(=O)N[C@@H](Cc2ccccc2)C(=O)N2CCC3(C2)OC(=O)Nc2ccc(Cl)cc23)cc1 (stereo partly drawn) [Example 164] : what is it?
Response: 7.44

###

target-under-test: Human plasma kallikrein (Homo sapiens (Human))
method-notes: Kallikrein Assay
experimental-parameters: purified Human plasma kallikrein 0.5 nM, Acetyl-K-P-R-AFC, pH 7.4; Ki from IC50 by Cheng Prusoff
One threshold, 0.9 nM, splits the recorded Ki values: lower ones are True, equal or higher ones are False.

[
  {
    "molecule": "COC(=O)Nc1ccc(C(=O)N[C@@H](CCc2ccccc2)C(=O)N2CCC3(C2)OC(=O)Nc2ccc(Cl)cc23)cc1 (stereo partly drawn)",
    "class-assignment": "False"
  },
  {
    "molecule": "COC(=O)Nc1ccc(C(=O)N[C@@H](Cc2ccccc2)C(=O)N2CCC[C@@]3(C2)OC(=O)Nc2ccc(F)cc23)cc1",
    "class-assignment": "False"
  },
  {
    "molecule": "COC(=O)Nc1ccc(C(=O)N[C@@H](CC2(OC)CC2)C(=O)N2CCC[C@@]3(C2)OC(=O)Nc2ccc(Cl)c(F)c23)cc1",
    "class-assignment": "True"
  },
  {
    "molecule": "Nc1n[nH]c2cc(C(=O)N[C@@H](CC3CC3)C(=O)N3CCC[C@@]4(C3)OC(=O)Nc3ccc(Cl)cc34)ccc12",
    "class-assignment": "False"
  },
  {
    "molecule": "O=C1Nc2ccc(Cl)c(F)c2[C@@]2(CCCN(C(=O)[C@H](Cc3ccccc3)NC(=O)c3ccc(-c4ncc[nH]4)s3)C2)O1",
    "class-assignment": "True"
  }
]

Prompt: Criterion: Ki strictly below 0.9 nM. Is it met by NC(=O)c1ccc(C(=O)N[C@@H](Cc2ccccc2)C(=O)N2CCC[C@@]3(C2)OC(=O)Nc2ccc(Cl)c(F)c23)s1 ?
Response: True

###

target-under-test: human Factor XIa (Homo sapiens (Human))
Sequence (P03951 388-625): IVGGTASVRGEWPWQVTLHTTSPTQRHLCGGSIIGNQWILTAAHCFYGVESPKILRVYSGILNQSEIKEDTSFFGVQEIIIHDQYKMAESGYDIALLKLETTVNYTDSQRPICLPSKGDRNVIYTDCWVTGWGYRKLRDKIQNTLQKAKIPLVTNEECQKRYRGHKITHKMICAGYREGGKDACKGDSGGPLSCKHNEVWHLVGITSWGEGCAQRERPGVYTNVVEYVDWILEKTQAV
Sequence (P03951 19-387 partner): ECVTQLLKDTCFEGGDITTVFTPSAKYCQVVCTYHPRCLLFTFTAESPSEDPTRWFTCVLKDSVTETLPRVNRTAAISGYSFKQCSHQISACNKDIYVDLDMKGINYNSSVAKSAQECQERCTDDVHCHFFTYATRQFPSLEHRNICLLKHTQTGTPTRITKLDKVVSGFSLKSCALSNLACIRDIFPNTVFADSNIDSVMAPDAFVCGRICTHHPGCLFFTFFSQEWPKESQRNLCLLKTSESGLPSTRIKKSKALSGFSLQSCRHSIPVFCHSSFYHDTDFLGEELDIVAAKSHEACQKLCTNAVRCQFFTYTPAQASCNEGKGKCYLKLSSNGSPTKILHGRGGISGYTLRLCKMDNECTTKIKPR
method-notes: Factor XIa Assay
Type: biochemical
experimental-parameters: purified human Factor XIa 40 pM, Z-Gly-Pro-Arg-AFC 100 μM, pH 7.4; read-out: FXIa Ki
experimental-readout: Ki (nM)
Give bare numbers, in nM.

Quick one: give me Ki for each item below, same order please.
1. COC(=O)Nc1ccc(C(=O)N[C@@H](Cc2ccc(-c3cc(C(F)(F)F)nn3C)cc2)C(=O)N2CC[C@@]3(C2)OC(=O)Nc2ccc(Cl)cc23)cc1 [Example 81]
2. COC(=O)Nc1ccc(C(=O)N[C@@H](CC(=O)Nc2ccc(F)cc2)C(=O)N2CC[C@@]3(C2)OC(=O)Nc2ccc(Cl)cc23)cc1 [Example 91]
3. COC(=O)Nc1ccc(C(=O)N[C@@H](Cc2ccccc2)C(=O)N2CCC3(C2)NC(=O)Nc2ccc(Cl)cc23)cc1 (single isomer, unassigned) [Example 19a]
4. COC(=O)Nc1ccc(-c2c[nH]c([C@H](Cc3ccccc3)C(=O)N3CC[C@@]4(C3)OC(=O)Nc3ccc(Cl)cc34)n2)cc1 [Example 122d]
5. O=C1Nc2ccc(Cl)cc2[C@@]2(CCCN(C(=O)C(Cc3ccc(F)cc3)c3nc4ccc(F)cc4[nH]3)C2)O1 (stereo partly drawn) [Example 133]

Response:
1. 29.9
2. 144
3. 5000
4. 364
5. 8750

Quick one: give me Ki for each item below, same order please.
1. COC(=O)Nc1ccc(NC(=O)N[C@@H](Cc2ccccc2)C(=O)N2CCC3(C2)OC(=O)Nc2ccc(Cl)cc23)cc1 (stereo partly drawn) [Example 275]
2. COC(=O)Nc1ccc(C(=O)N[C@@H](Cc2ccc(-c3cn[nH]c3)cc2)C(=O)N2CC[C@@]3(C2)OC(=O)Nc2ccc(Cl)cc23)cc1 [Example 78]
3. COC(=O)Nc1ccc(C(=O)N[C@@H](Cc2ccc(OC)cn2)C(=O)N2CCC[C@@]3(C2)OC(=O)Nc2ccc(Cl)c(F)c23)cc1 [Example 75]
4. COC(=O)Nc1ccc(C(=O)N[C@@H](CC(=O)N2CC(N(C)C)C2)C(=O)N2CCC[C@@]3(C2)OC(=O)Nc2ccc(Cl)cc23)cc1 [Example 96]
5. COC(=O)Nc1ccc(C(=O)N[C@@H](Cc2ccc(-c3conc3C)cc2)C(=O)N2CC[C@@]3(C2)OC(=O)Nc2ccc(Cl)cc23)cc1 [Example 82]
6. COC(=O)Nc1ccc(C(=O)N[C@@H](C)C(=O)N2CCC[C@@]3(C2)OC(=O)Nc2ccc(Cl)cc23)cc1 [Example 55]

Response:
1: 5000; 2: 2.37; 3: 1.9; 4: 203; 5: 7.12; 6: 93.2

Prompt: Fill in the recorded Ki for this molecule, with human Factor XIa (Homo sapiens (Human)) as test system: O=C1Nc2ccc(Cl)cc2[C@@]2(CCCN(C(=O)[C@H](Cc3ccccc3)Nc3ccc(-c4cc[nH]n4)cn3)C2)O1 [Example 296]
Response: 10000
